Species: Rattus norvegicus
ASSAY_EXPLANATION: Open TG-GATES - Regimen: Daily Repeat
Type: toxicity, organism-based, Sprague-Dawley
Parameters: regimen Daily Repeat, gender Male, age 6 weeks
PARTICULARS: in vivo, po, 0 mg/kg, […], tissue Blood, route gavage, dose level Control, time 14 day
ASSAY_READOUT: PT (s)

{"columns": ["COMPOUND", "RESULT_VALUE"],
 "data": [
  ["C[C@H]1C(=O)O[C@@H]2CCN3CC=C(COC(=O)[C@](C)(O)[C@]1(C)O)[C@H]23", 16.7],
  ["Cc1cccc(C)c1OCC(C)N (stereo not drawn)", 16.1],
  ["CCOC(=O)C(C)(C)Oc1ccc(Cl)cc1 [CLOFIBRATE]", 12.3]
]}

* * *

Species on record: Rattus norvegicus
ASSAY_EXPLANATION: Open TG-GATES - Regimen: Single
Assay type: toxicity, organism-based, Sprague-Dawley
Parameters: regimen Single, gender Male, age 6 weeks
PARTICULARS: in vivo, po, 0 mg/kg, 6 h, tissue Blood, route gavage, dose level Control

{"columns": ["COMPOUND", "MCV, fL"],
 "data": [
  ["C=C(C)[C@H]1Cc2c(ccc3c2O[C@@H]2COc4cc(OC)c(OC)cc4[C@@H]2C3=O)O1 [ROTENONE]", 64.5],
  ["CCOC(=O)C(C)(C)Oc1ccc(Cl)cc1 [CLOFIBRATE]", 60.7],
  ["Cc1ccc2cc3c(ccc4ccccc43)c3c2c1CC3 [3-METHYLCHOLANTHRENE]", 63.2]
]}

* * *

Eos by entry:
Species on record: Rattus norvegicus
ASSAY_EXPLANATION: Open TG-GATES - Regimen: Single
Type: toxicity, organism-based, Sprague-Dawley
Design: regimen Single, gender Male, age 6 weeks
PARTICULARS: in vivo, po, 0 mg/kg, 6 h, tissue Blood, route gavage, dose level Control

{"columns": ["MOLECULE", "READING_UNIT", "Eos"],
 "data": [
  ["C[C@H]1C(=O)O[C@@H]2CCN3CC=C(COC(=O)[C@](C)(O)[C@]1(C)O)[C@H]23", "%", 1],
  ["Cc1ccc2cc3c(ccc4ccccc43)c3c2c1CC3", "%", 0.6],
  ["CCOC(=O)C(C)(C)Oc1ccc(Cl)cc1 [CLOFIBRATE]", "%", 1],
  ["O=C1CN(/N=C/c2ccc([N+](=O)[O-])o2)C(=O)N1", "%", 1],
  ["O=[N+]([O-])c1ccc(O)c([N+](=O)[O-])c1", "%", 0.8],
  ["C[C@H]1O[C@H](O[C@H]2[C@H](O)[C@@H](O)[C@@H](O[C@H]3[C@H](O)[C@@H](O)C(O)O[C@@H]3CO)O[C@@H]2CO)[C@H](O)[C@@H](O)[C@@H]1N[C@H]1C=C(CO)[C@@H](O)[C@H](O)[C@H]1O (stereo partly specified)", "%", 0.6]
]}

* * *

ALP by entry:
Organism: Rattus norvegicus
ASSAY_EXPLANATION: Open TG-GATES - Regimen: Single
Assay type: toxicity, organism-based, Sprague-Dawley
Set-up: regimen Single, gender Male, age 6 weeks
PARTICULARS: in vivo, po, 0 mg/kg, 24 h, tissue Plasma, route gavage, dose level Control

{"columns": ["COMPOUND", "ALP (IU/L)"],
 "data": [
  ["C[C@H]1O[C@H](O[C@H]2[C@H](O)[C@@H](O)[C@@H](O[C@H]3[C@H](O)[C@@H](O)C(O)O[C@@H]3CO)O[C@@H]2CO)[C@H](O)[C@@H](O)[C@@H]1N[C@H]1C=C(CO)[C@@H](O)[C@H](O)[C@H]1O (stereo not given in full) [ACARBOSE]", 1381.8],
  ["Cc1cccc(C)c1OCC(C)N (stereo not given) [MEXILETINE]", 1840.4],
  ["Cn1cc[nH]c1=S [METHIMAZOLE]", 1887.6],
  ["C[C@H]1C(=O)O[C@@H]2CCN3CC=C(COC(=O)[C@](C)(O)[C@]1(C)O)[C@H]23 [MONOCROTALINE]", 1787.6],
  ["OCCN1CCN(CCCN2c3ccccc3Sc3ccc(C(F)(F)F)cc32)CC1 [FLUPHENAZINE]", 951.8]
]}

* * *

Organism: Rattus norvegicus
ASSAY_EXPLANATION: Open TG-GATES - Regimen: Daily Repeat
Assay type: toxicity, organism-based, Sprague-Dawley
Parameters: regimen Daily Repeat, gender Male, age 6 weeks
PARTICULARS: in vivo, po, 0 mg/kg, […], tissue Blood, route gavage, dose level Control, time 28 day

{"columns": ["COMPOUND", "READING_UNIT", "MCHC"],
 "data": [
  ["C[C@H]1O[C@H](O[C@H]2[C@H](O)[C@@H](O)[C@@H](O[C@H]3[C@H](O)[C@@H](O)C(O)O[C@@H]3CO)O[C@@H]2CO)[C@H](O)[C@@H](O)[C@@H]1N[C@H]1C=C(CO)[C@@H](O)[C@H](O)[C@H]1O (some centres undefined)", "%", 34.8],
  ["OCCN1CCN(CCCN2c3ccccc3Sc3ccc(C(F)(F)F)cc32)CC1", "%", 33.4],
  ["Cn1cc[nH]c1=S", "%", 35.3],
  ["CCOC(=O)C(C)(C)Oc1ccc(Cl)cc1 [CLOFIBRATE]", "%", 35.3]
]}

* * *

Species on record: Rattus norvegicus
ASSAY_EXPLANATION: Open TG-GATES - Regimen: Single
Assay type: toxicity, organism-based, Sprague-Dawley
Design: regimen Single, gender Male, age 6 weeks
PARTICULARS: in vivo, po, 0 mg/kg, 3 h, tissue Liver, route gavage, dose level Control
ASSAY_READOUT: LIVER (g)

{"columns": ["MOLECULE", "RESULT_VALUE"],
 "data": [
  ["CCOC(=O)C(C)(C)Oc1ccc(Cl)cc1 [CLOFIBRATE]", 10.8],
  ["Cc1cccc(C)c1OCC(C)N (stereo not drawn)", 10.2],
  ["O=[N+]([O-])c1ccc(O)c([N+](=O)[O-])c1", 9.3]
]}
